Recorded values, source PubChem BioAssay (NCI).

# System: SN12C renal
# Assay Text: NCI tumour cell line growth inhibition, 48 h; in the data active = GI50 below about 0.43 µM; inactive = the rest
Your response should consist of one outcome taken from yes = active, no = inactive

What classification did COc1ccc(-c2nn3ncccc3c2-c2ccnc(Nc3ccc4c(c3)OCCO4)n2)cc1 end up with in this test? no

Same for CCC[CH2][Sn]([CH2]CCC)([O]C(=O)c1cccc(F)c1F)[O]C(=O)c1cccc(F)c1F no

Same for O=C(Nc1ccc2c(c1)OCCO2)C(=O)c1c[nH]c2ccccc12 no

Repeat with COc1cc(-c2cc3ncccc3c3[nH]c(=O)c4cccnc4c23)cc(OC)c1OC no

Also CCC[CH2][Sn]([CH2]CCC)([CH2]CCC)[O]C(=O)C(OC)c1ccccc1 (stereo not given) , if possible. yes

Then CC12OC(C(=O)C13CCC3)C1C(=O)c3ccc4c(ccc5ccccc54)c3C(=O)C12 (stereo not given) ? no

What do you have for O=C(O)Cn1ccc2ccccc21 ? no

Note, next up: Cn1cncc1-c1c(F)cncc1NC(=O)c1c(N)nn2cc(F)cnc12 no

Next record, please: C=C(CN1c2ccccc2Sc2ccccc21)c1ccc(C(=O)Nc2ccccc2N)cc1 no

# input for lookup
Give the logged outcome of this assay for the following compound: NC(CSC(c1ccccc1)(c1ccccc1)c1ccc(F)cc1)C(=O)O (stereo not given) no

---

# Tested on: IGROV1 ovarian
# Assay Text: NCI tumour cell line growth inhibition, 48 h; in the data active means GI50 below about 0.43 µM; inactive means the rest
Field 'call' accepts True for active, False for inactive

Reference set (4 entries):
Per the records of this test, what outcome belongs to CC1=C(C#N)C(/C=C(\Cl)c2ccc(F)cc2)C(C#N)=C(C)N1 ? False

What do we get for Cc1c(C)c2c(c(C)c1OCC(=O)O)CC[C@@](C)(CCC[C@@H](C)CCC[C@@H](C)CCCC(C)C)O2 ? False

Could you do the same for c1cc[c]([Sn]([O]c2cccc3cccnc23)([O]c2cccc3cccnc23)[c]2ccccc2)cc1 , please? False

Query Nc1ccc(-c2ccc3ncc4ccc(=O)n(-c5cccc(C(F)(F)F)c5)c4c3c2)cn1 next True

Continuing:
Entry COc1ccc2nc3cccc([N+](=O)[O-])c3c(NCCNCCN(C)C)c2c1 : call = ? True

Subsequent entry: CCc1nn2ncccc2c1-c1ccnc(NC2CC2)n1 False

Okay, and COc1ccc(-c2n[nH]nc2-c2cc(OC)c3c(c2)OCO3)cc1 ? True

Now the same for Cc1ccc(O)c(NC2=C(Cl)C(=O)N(Cc3ccccc3)C2=O)c1 False

Then what about the compound COc1cccc(NC(=O)c2sc3nc4c(cc3c2N)C(O)CCC4)c1 (stereo not given) ? True

Query NCCOc1ncccc1/C=C1\c2ccccc2-c2ccc([N+](=O)[O-])cc21 next True

---

# Tested on: HCC-2998 colon
# Assay Text: NCI tumour cell line growth inhibition, 48 h
// reported GI50 for each item listed

// below: answered compounds
// GI50 lookup, key: O=C(/C=C\n1cnc(-c2cc(C(F)(F)F)cc(C(F)(F)F)c2)n1)N1CC(F)(F)C1 0.729 µM

Lookup C[C@H](NC(=O)c1c(C(F)F)nn(C)c1Oc1cccc(C(F)(F)F)c1)c1ccc(C(=O)O)cc1 > 100 µM

Do the same for C=C1C(=O)O[C@H]2[C@H]1CC/C(COC(=O)NCCc1cccc(OC)c1)=C\CC[C@@]1(C)O[C@@H]21 please 1.68 µM

Further cases:
Item COc1ccc(-c2nc(N)c(C#N)c3c2CCOc2c-3ccc3ccccc23)cc1 has what recorded GI50? 56.1 µM

Would you mind doing Cn1cc(C2=C(c3ccccc3C(F)(F)F)C(=O)NC2=O)c2ccccc21 as well? > 19.6 µM

What would you report for COc1ccc2c(c1)O/C(=C\c1cccc(OCC(=O)Nc3nc(C)c(C)s3)c1)C2=O ? 9.43 µM

Entry to check: Cc1noc(C)c1-c1cnc2c(-c3ccc(C(=O)O)cc3)cn([C@@H](C)c3ccccn3)c2c1 0.966 µM

Cc1nc(Sc2nc3ccc([N+](=O)[O-])cc3s2)sc1C ? 12.5 µM

Entry COc1cc(NC(C)CCCNC(C)C)c2ncccc2c1OC (centres undefined) please > 100 µM
